- run.description: Determination of aqueous (kinetic) solubility
- Format: physicochemical
- test.context: buffer pH 7.4, room temperature
parameter: solubility

What does the data say about its solubility? Entry: Cc1ccc2c(c1NC(=O)Cc1ccc(C(F)(F)F)c(F)c1)CCN([C@H](C)CO)C2=O
> 75 µM

---

- target.of.assay: P2X7 receptor (Homo sapiens, UniProt Q99572)
- run.description: IL-1β release assay in differentiated THP-1 cells stimulated with BzATP (Example 9); % inhibition and IC50
- test.context: THP-1 cells differentiated with LPS and IFN-γ, 30 min pretreatment, BzATP 250 uM, IL-1β by ELISA
Measured pIC50 values are reported for all entries that follow.
Just so you know, pIC50 here is -log10 of the concentration in molar units; reply with that number alone.

As a guide, the following entries are already answered.
| compound | pIC50 |
| --- | --- |
| O=C(Cc1ccc(Cl)cc1C(F)(F)F)Nc1cccc2c(=O)n(C(CO)CO)ccc12 [Compound 228] | 6.67 |
| C[C@H](CO)n1ccc2c(NC(=O)Cc3ccc(C(F)(F)F)cc3F)cccc2c1=O [Compound 359] | 7.37 |
| C[C@H](C(=O)Nc1cccc2c(=O)n([C@@H](C(N)=O)c3ccccc3)ccc12)c1ccc(Cl)cc1 [Compound 279] | 6.98 |
| C[C@H](C(N)=O)n1ccc2c(NC(=O)Cc3ccc(F)c(C(F)(F)F)c3)cccc2c1=O [Compound 304] | 8.23 |
| O=C(Cc1ccc(F)c(C(F)(F)F)c1)Nc1c(Cl)ccc2c(=O)n(CCO)ccc12 [Compound 386] | 8.26 |

pIC50 lookup needed for CNCCn1ccc2c(NC(=O)Cc3ccc(Cl)c(Cl)c3)cccc2c1=O [Compound 234] , thanks.
6.84

# pIC50 lookup, item C[C@@H](C(=O)Nc1cccc2c(=O)n([C@@H](C)CO)ccc12)c1ccc(Cl)c(Cl)c1 [Compound 317]
7.03

Which pIC50 value belongs to C[C@H](C(N)=O)n1ccc2c(NC(=O)Cc3ccc(F)c(Br)c3)cccc2c1=O [Compound 307] ?
7.73

---

- target.of.assay: P2X7 receptor (Homo sapiens, UniProt Q99572)
- Sequence (Q99572 1-595): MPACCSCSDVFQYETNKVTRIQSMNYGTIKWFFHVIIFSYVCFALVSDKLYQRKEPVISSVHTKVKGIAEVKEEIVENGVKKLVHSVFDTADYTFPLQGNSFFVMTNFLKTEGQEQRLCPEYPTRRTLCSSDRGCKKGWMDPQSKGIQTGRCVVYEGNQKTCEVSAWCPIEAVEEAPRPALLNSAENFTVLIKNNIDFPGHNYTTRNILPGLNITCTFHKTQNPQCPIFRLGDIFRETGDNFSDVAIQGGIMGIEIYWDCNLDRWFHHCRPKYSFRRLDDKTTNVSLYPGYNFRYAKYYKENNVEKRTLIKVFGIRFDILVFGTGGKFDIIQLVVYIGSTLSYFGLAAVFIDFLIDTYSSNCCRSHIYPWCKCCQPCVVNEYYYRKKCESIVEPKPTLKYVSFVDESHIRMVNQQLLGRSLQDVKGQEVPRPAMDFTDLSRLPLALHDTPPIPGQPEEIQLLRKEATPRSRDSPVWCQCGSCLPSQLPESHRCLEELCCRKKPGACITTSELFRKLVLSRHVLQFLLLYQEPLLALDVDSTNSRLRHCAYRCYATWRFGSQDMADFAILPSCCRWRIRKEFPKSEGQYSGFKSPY
- run.description: IL-1β release assay in differentiated THP-1 cells stimulated with BzATP (Example 9); % inhibition and IC50
- test.context: THP-1 cells differentiated with LPS and IFN-γ, 30 min pretreatment, BzATP 250 uM, IL-1β by ELISA
// reported IC50 for each item listed
The reply should contain only the number, in nM.

See these solved cases before continuing.
| cpd.smiles | value.reported |
| --- | --- |
| NC(=O)Cn1ccc2c(NC(=O)Cc3ccc(Cl)c(C(F)(F)F)c3)cccc2c1=O | 4.83 |
| CC(C)[C@H](C(=O)O)n1ccc2c(NC(=O)[C@@H](C)c3ccc(Cl)cc3)cccc2c1=O | 320 |
| C[C@@H](C(N)=O)n1ccc2c(NC(=O)Cc3ccc(Cl)c(C(F)(F)F)c3)cccc2c1=O | 29.6 |

Now consider a different molecule.
Form field: reported IC50 of CC(C)[C@H](C(N)=O)n1ccc2c(NC(=O)[C@H](C)c3ccc(Cl)cc3)cccc2c1=O
6.91

---

Collected IC50 values appear next to each entry.
- target.of.assay: P2X7 receptor (Homo sapiens, UniProt Q99572)
- run.description: IL-1β release assay in differentiated THP-1 cells stimulated with BzATP (Example 9); % inhibition and IC50
- test.context: THP-1 cells differentiated with LPS and IFN-γ, 30 min pretreatment, BzATP 250 uM, IL-1β by ELISA

# annotated cases, reported IC50 shown
| compound | IC50 |
| --- | --- |
| C[C@H](C(N)=O)n1ccc2c(NC(=O)Cc3ccc(Cl)cc3C(F)(F)F)cccc2c1=O | 23.6 nM |
| Cc1ccc(CC(=O)Nc2cccc3c(=O)n([C@H](C)C(N)=O)ccc23)cc1F | 32.2 nM |
| O=C(Cc1ccc(Cl)c(F)c1)Nc1cccc2c(=O)n(CCO)ccc12 | 84.2 nM |
| C[C@H](C(=O)Nc1cccc2c(=O)n(C(C(N)=O)c3ccc(Cl)cc3)ccc12)c1ccc(Cl)cc1 (some centres unmarked) | 221 nM |
| CCC(C(=O)Nc1cccc2c(=O)n(CCO)ccc12)c1ccccc1 (centres unmarked) | > 1000 nM |

Look up IC50 for this compound: C[C@H](CO)n1ccc2c(NC(=O)Cc3ccc(C(F)(F)F)c(F)c3)cccc2c1=O
9.31 nM

If you can, please state the reported IC50 value of O=C(Cc1ccc(Cl)c(C(F)(F)F)c1)Nc1cccc2c(=O)n(C[C@@H]3CCCN3)ccc12 .
10.7 nM

// IC50 lookup, key: O=C(Nc1cccc2c(=O)n(CCO)ccc12)c1ccccc1
> 1000 nM

---

- target.of.assay: P2X7 receptor (Homo sapiens)
- run.description: IL-1β release assay in differentiated THP-1 cells stimulated with BzATP (Example 9); % inhibition and IC50
- test.context: THP-1 cells differentiated with LPS and IFN-γ, 30 min pretreatment, BzATP 250 uM, IL-1β by ELISA
parameter: pIC50
Entry type: numeric. Quantity: pIC50, the -log10 of concentration in molar units.

Some compounds with known pIC50 results, for comparison:
| compound | value.reported |
| --- | --- |
| Cc1ccc2c(=O)n([C@H](C)CO)ccc2c1NC(=O)Cc1ccc(F)c(C(F)(F)F)c1 | 9.13 |
| C[C@@H](CO)n1ccc2c(NC(=O)Cc3ccc(Cl)c(F)c3)cccc2c1=O | 6.69 |
| O=C(Cc1ccc(Cl)c(C(F)(F)F)c1)Nc1cccc2c(=O)n(CC3CCNCC3)ccc12 | 7.41 |
| C[C@H](CO)n1ccc2c(NC(=O)Cc3ccc(C(F)(F)F)c(F)c3)c(Cl)ccc2c1=O | 8.33 |
| CC(C)C[C@H](CO)n1ccc2c(NC(=O)Cc3ccc(Cl)c(C(F)(F)F)c3)cccc2c1=O | 6.92 |

Consider the compound C[C@@H](C(N)=O)n1ccc2c(NC(=O)Cc3ccc(F)c(C(F)(F)F)c3)cccc2c1=O and give its measured pIC50.
7.68

What value of pIC50 has been reported for the following compound? CC(C(=O)Nc1cccc2c(=O)n([C@@H](C)C(N)=O)ccc12)c1ccc(Cl)cc1 (stereo partly shown)
7.93

Look at this compound and give its reported pIC50. C[C@H](C(N)=O)n1ccc2c(NC(=O)Cc3ccc(C(F)(F)F)cc3)c(Cl)ccc2c1=O
8.64

Please report the recorded pIC50 for C[C@H](C(N)=O)n1ccc2c(NC(=O)Cc3ccc(C#N)cc3)cccc2c1=O .
6.48

---

Entries and their pIC50 values follow.
- target.of.assay: P2X7 receptor (Homo sapiens, UniProt Q99572)
- run.description: IL-1β release assay in differentiated THP-1 cells stimulated with BzATP (Example 9); % inhibition and IC50
- test.context: THP-1 cells differentiated with LPS and IFN-γ, 30 min pretreatment, BzATP 250 uM, IL-1β by ELISA
Note: pIC50 values are expressed as the negative base-10 logarithm of concentration in M.

Below: 4 compounds and their reported pIC50.
| compound | target.of.assay | parameter | value.reported |
| --- | --- | --- | --- |
| Cc1ccc2c(=O)n([C@H](C)CO)ccc2c1NC(=O)Cc1ccc(C(F)(F)F)cc1 [Compound 397] | P2X7 receptor (Homo sapiens, UniProt Q99572) | pIC50 | 8.26 |
| C[C@H](CO)n1ccc2c(NC(=O)Cc3ccc(C(F)(F)F)cc3)cccc2c1=O [Compound 319] | P2X7 receptor (Homo sapiens, UniProt Q99572) | pIC50 | 7.60 |
| C[C@H](C(N)=O)n1ccc2c(NC(=O)Cc3ccc(Cl)cc3F)c(Cl)ccc2c1=O [Compound 343] | P2X7 receptor (Homo sapiens, UniProt Q99572) | pIC50 | 6.40 |
| CNC(=O)[C@@H](C(C)C)n1ccc2c(NC(=O)[C@H](C)c3ccc(Cl)cc3)cccc2c1=O [Compound 277] | P2X7 receptor (Homo sapiens, UniProt Q99572) | pIC50 | 7.09 |

// returns reported pIC50 for input O=C(Cc1cc(C(F)(F)F)ccc1C(F)(F)F)Nc1cccc2c(=O)n(CCO)ccc12 [Compound 70]
6.39

# lookup: pIC50 of C[C@H](C(=O)Nc1cccc2c(=O)n([C@H](C)C(N)=O)ccc12)c1ccc(Cl)cc1 [Compound 263]
7.88

Name the reported pIC50 value associated with the compound C[C@@H](CO)n1ccc2c(NC(=O)Cc3ccc(C(F)(F)F)c(F)c3)cccc2c1=O [Compound 336]
7.30
